Cited source for all entries: paper PMC9415367

assay: in vitro; settings: human, Huh7 cells
readout: viability at 72 h, 18.7 µM

[ask] Record request: viability at 72 h, 18.7 µM value, item O=C(O)CCc1ccc(O)cc1 [Compound 1, 3-(4-hydroxyphenyl)propionic acid]
[reply] ~95%
